- assay: small-molecule microarray binders of probe aXIP, primary screen, biochemical, NeuroSMM set, 635/667 nm fluorescence (AID 1119);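 further: probe is the protein aXip251-270 applied at 1 µg/mL to compound-printed slides; binding of probe to printed compounds measured as 667 nm fluorescence plus signal to noise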
- condition_context: higher = more signal, called active from +8 up or from −8 down
Class key for composite Z-score values: band A: < -0.09; band B: ≥ -0.09 and < 0.5; band C: ≥ 0.5

INSERT INTO measurements (compound, assigned_class) VALUES
  ('CC(=O)OC[C@H]1O[C@H](CC=NOC[C@@H](O)[C@H]2O[C@@H]3OC(C)(C)O[C@@H]3[C@H]2O)C=C[C@@H]1OC(C)=O', 'band B'),
  ('O=C(NN=C1C[C@@H](O)[C@@H](O)[C@@H]2[C@@H]3C(=O)N(Cc4ccccc4)C(=O)[C@@H]3CC[C@H]12)OCc1ccccc1', 'band B'),
  ('O=C1[C@H]2CCn3c(=O)n(-c4ccccc4)c(=O)n3[C@H]2[C@H](O)[C@@H]2O[C@H]12', 'band A'),
  ('CO[C@@H]1COC(=O)[C@H](CCSC)NC(=O)CC=C[C@@H](C)COC(=O)[C@@H]2CCCN2C(=O)CC=C[C@H]1C', 'band C'),
  ('CC(C)=CCCC(C)=CCON=C1C[C@@H](O)[C@@H](O)[C@@H]2[C@@H]3C(=O)N(Cc4ccc5c(c4)OCO5)C(=O)[C@@H]3CC[C@@H]12', 'band C'),
  ('COc1ccc(COC(=O)NN=C2C[C@@H](O)[C@@H](O)[C@@H]3[C@@H]4C(=O)N(C5CCCCC5)C(=O)[C@@H]4CC[C@@H]23)cc1', 'band A'),
  ('C[C@@H](c1ccccc1)N1C(=O)[C@H]2[C@H]3[C@H](O)[C@H](O)CC(=NNC(=O)OCc4ccccc4)[C@@H]3CC[C@H]2C1=O', 'band C'),
  ('CC(C)=NO[C@@H](C)c1cn([C@H](CO)Cc2ccccc2)nn1', 'band B'),
  ('CCOC(=O)[C@H](Cc1ccccc1)NC(=O)CCC1CC(OC(=O)NCc2ccc3c(c2)OCO3)CC2(CCCC(COC(=O)NCCCN3CCCC3=O)O2)O1 (stereo not given in full)', 'band C'),
  ('CC(CCN1CCCCc2nc(C)c(C)cc21)=NO[C@@H](C)c1cc(-c2c(C)cc(C)cc2C)no1', 'band B'),
  ('CC(C)CON=C1C[C@@H](O)[C@@H](O)[C@@H]2[C@@H]3C(=O)N(Cc4ccc5c(c4)OCO5)C(=O)[C@@H]3CC[C@@H]12', 'band B'),
  ('O=C(NN=C1C[C@@H](O)[C@@H](O)[C@@H]2[C@@H]3C(=O)N(Cc4ccc5c(c4)OCO5)C(=O)[C@@H]3CC[C@@H]12)OCc1ccccc1', 'band C'),
  ('O=C1C=C[C@@H](O)[C@@H]2[C@@H]3C(=O)N(Cc4ccc5c(c4)OCO5)C(=O)[C@@H]3CC[C@@H]12', 'band A'),
  ('CCOC(=O)CCN1C(=O)[C@H]2[C@@H]3C(=CC[C@H]2C1=O)C(=O)[C@H]1O[C@H]1[C@H]3O', 'band A'),
  ('CC(C)[C@@H](OCc1ccccc1)[C@H](C)C=NO[C@@H](C)c1cn([C@H](CO)Cc2ccccc2)nn1', 'band B');

====

- assay: PSAC antagonists in infected red cells, primary screen, cell-based, P. falciparum Indochina, OD700, 1 h (AID 1154)
- condition_context: P. falciparum Indochina infected RBC osmotic lysis, higher = more signal, called active from +8 up or from −8 down
Reported z-score values for a set of compounds
assay_readout: z-score

INSERT INTO measurements (compound, assay_readout, recorded_number) VALUES
  ('C#CCCCON=C1C[C@@H](O)[C@@H](O)[C@@H]2[C@@H]3C(=O)N(C[C@@H]4CCCO4)C(=O)[C@@H]3CC[C@@H]12', 'z-score', -0.262),
  ('C[C@H]1CC[C@H]2C(=O)OC(COc3ccc(C(C)(C)C)cc3)CN2[C@@H]1c1ccc(Br)cc1 (some centres not stated)', 'z-score', 1.39),
  ('CO[C@@H]1C=CCC(=O)N[C@@H](C)C(=O)OC[C@@H](OC)[C@H](C)C=CCC(=O)OC[C@H]1C', 'z-score', -0.0896),
  ('COC(=O)CC=C[C@@H](C)[C@@H](C=NOC(C)CN1CCCCc2nc(C)c(C)cc21)NS(=O)(=O)c1ccc(C)cc1 (some centres not stated)', 'z-score', -0.193),
  ('CCN(CC)CC(O)CN1CCCCc2nc(C)c(C)cc21 (configuration not stated)', 'z-score', -0.446),
  ('COC(=O)[C@@H]1CC[C@H](C)[C@@H](c2ccc(C)cc2)N1C(=O)c1ccc(C=NOC[C@H]2O[C@H](c3ccccc3)C=C[C@@H]2Oc2ccc(OC)cc2)cc1', 'z-score', 0.639),
  ('COc1ccc(COC(=O)NN=C2C[C@@H](O)[C@@H](O)[C@@H]3[C@@H]4C(=O)N(C5CCCCC5)C(=O)[C@@H]4CC[C@@H]23)cc1', 'z-score', 6.59);

Just for reference, PubChem BioAssay is where these values come from.
